Values were extracted from the DeepSol protein solubility set.

# EXPERIMENT_NOTES: soluble on expression in E. coli; label from the status in PepcDB or PDB records
MEASURED_METRIC: soluble on expression in E. coli

BIOSEQUENCE: KAAPAEPATGPFNVSATSPVTGQNYQMSCTAHDHVMRCSGGNNAIVLLTPNPTGVVEEKTYEYALEGTVVLKNTAEVLEGLKPPNNDNPNNEYILLWFDNPMDVAGKHAGNRDQLSTKNVRYLSLGKKETTQYGPLPDTTGPWRQYVGKRIRLHVNSDNMRYPSDTGMPLGALRLEEAPDIRIEEL
MEASURED_METRIC: soluble on expression in E. coli
RESULT: not soluble
//
BIOSEQUENCE: MGHHHHHHSHMGFYLGITALKSIGNNKNNNIDNENNHQAKILTFPVSFTCRTFLPARGDILQGTVKKVLWNGAFIRSGPLRYAYLSLLKMPHYHYVHSPLSEDEKPHFQKDDLSKIAVGVVVRFQVLAVRFKERPHKRRNDYYVLATLEGNGSFGP
MEASURED_METRIC: soluble on expression in E. coli
RESULT: soluble
//
BIOSEQUENCE: MSLEEKPKYKRILLKLSGEAFAGEQGYGIDPAFLEYISHEIKNVYDLGVQVAIVIGGGNIFRGFQGKEIGVDRATADYMGMLATVINALALQSALENHVNIPTRVLSAIEMRQVAEPYIRRRAIRHLEKGRIVIFAGGTGNPFFSTDTAAALRAAEIGAEVLIKATKVGGIYDKDPEKYPDAVLIKEISYLEVINMGLKVMDHTALTLCKENEIPIIVLNVKEKGNLRRAVLGEEVGSVVRGEGHHHHHH
MEASURED_METRIC: soluble on expression in E. coli
RESULT: soluble
//
BIOSEQUENCE: MSLTAPLPYTRAANLPALLRERILILDGAMGTMIQRYKLTEAQYRGERFASHPVDVKGNNELLLLTRPEVIREIHEQYLAAGADLIETNTFGATTVAQEDYKMAELAYEMNVVAARLAREACDKYSTPDKPRFVAGAFGPTPKTASISPDVNDPGARNISFDQLRDAYYEQGKALLEGGADVFLVETIFDTLNAKAALFAIDQLFEDSGERVPVMISGTVTDASGRILSGQTVEAFWNSLRHAKPITFGLNCALGAALMRPYIAELAKICDTAVSCYPNAGLPNPMSDTGFDETPEVTSSLVDEFAAAGLVNLVGGCCGTTPEHIRAIAERVAQRKPRAWPGQYREAAEGHHHHHH
MEASURED_METRIC: soluble on expression in E. coli
RESULT: soluble
//
BIOSEQUENCE: MARVLVVDDAAFMRMLLKKILTQAGHEVVGEASNGKEAVEKYKQLKPDLVTMDIVMPEMDGITAVKEIMKIDPNAKIIMITAVGQEAKVMEALKSGAKGYIVKPFQAQKVIEEVNRVLSS
MEASURED_METRIC: soluble on expression in E. coli
RESULT: soluble
//
BIOSEQUENCE: MAHHHHHHMSASLKKTALHLFHLAQQAKMDAFAGYHMPISYGRLGVLKEHLYTREVAGIFDVSHVGQYEVRGADRERFLEHVTPVDLQRIRAGHGALTMLTNAQGGIKDDCIVTKMADHLFLVLNAGCKEKDVAHMESVLRESAMKGADVQLVPLDRSLIALQGPQAAAILSEFMDDVPGMGFMQCRQRVNIKGMEVQVTRCGYTGEDGFELSVSNTDIVALVELLMSRKAEMIGLGARDSLRLEAGLNLYGHELTEDINPVAARFMWVISKRRMAEGGFIGYEPIKYLRDNASKGAVPRLRVGLVSTGPVAREKTVIEVGGKPVGEVTSGCPSPCLKKNIAIGYLDRELAKDGVKVDLVVRGRRVAAVVVTPPFVPARYYRKPK
MEASURED_METRIC: soluble on expression in E. coli
RESULT: not soluble
//
BIOSEQUENCE: MAHHHHHHMGTLEAQTQGPGSMQVKLSQERAKELAENASFIASPGKGILAADESTGTIQKRFDNVGVENTEKNRAEYRSILFTTKGLGKYISGCILFEETLFQQAPNGQNMVDLLRAEGILPGIKVDKGLVTIPNTDEEVSTTGLDGLAERCQKYYNAGARFAKWRAVLSIDVKKNKPSNLSILETAHTLARYAAICQENGLVPIVEPEILADGDHSIEVCAEVTERVLAAVFKALNDHKVLLEGALLKPNMVTQGVDCKDKPAPQTVGFLTSRALRRTVPPALPGVMFLSGGQSESMATRHLNEINKCNKHPWSLSFSYGRALQSSVLKTWNGSMSNAAAAQDVLMKLAQQNSEASLGSLKTDLSDDGESLFEAKYIY
MEASURED_METRIC: soluble on expression in E. coli
RESULT: soluble
//
BIOSEQUENCE: MGSDKIHHHHHHMKEIRIILMGTGNVGLNVLRIIDASNRRRSAFSIKVVGVSDSRSYASGRNLDISSIISNKEKTGRISDRAFSGPEDLMGEAADLLVDCTPASRDGVREYSLYRMAFESGMNVVTANKSGLANKWHDIMDSANQNSKYIRYEATVAGGVPLFSVLDYSILPSKVKRFRGIVSSTINYVIRNMANGRSLRDVVDDAIKKGIAESNPQDDLNGLDAARKSVILVNHIFGTEYTLNDVEYSGVDERSYNANDRLVTEVYVDDRRPVAVSRIISLNKDDFLMSIGMDGLGYQIETDSNGTVNVSDIYDGPYETAGAVVNDILLLSKVQK
MEASURED_METRIC: soluble on expression in E. coli
RESULT: not soluble
//
BIOSEQUENCE: MGSDKIHHHHHHVVQKFNRLFGKSNKGVGIELAPERVNVVQLRKQRQGLKLETFTSVAVPEGVVTDGQITDPAAMAQLIQQALAESKIKTTRVATGVPGRDSIVRIIPVPTELDDKELREMVLNHEAGLYLPYPREEADVDYQKLDYFVDEDGIEKVHVLLVATRKEITDTYISTFEQAGLQIDVLEINSFALIRTIREQLRQFGPQEAAVLVDIEFDSTEIAIIVNGVPQFSRTVPIGTYQMQTALARAMSLPTSRDMELLHGMIIPPTPLDGGKTGVTEIDPGMAAILRVLGELTDELRRSIDFYLNQSENLEVAQILLAGPGGGLQQLDEFFTQRLSLPTTQIDPIGSLSLEVDTDKYPQVKRSGLAIVLGLGMREV
MEASURED_METRIC: soluble on expression in E. coli
RESULT: not soluble
//
BIOSEQUENCE: MQSQWCARQQDMIAVYGALAEQCDYALHLGLTEAGMGSKGIVASTAALAVLLFKGIGDTIRVSLTPEPGGDRAREVIVAQEILQTMGLRAFVPLVAACPGCGRTTSTYFQELAESIQIYVREQMVIWREQYEGVENMSLAVMGCVVNGPGESKHADIGISLPGSGETPVAPVFVDGQKTVTLKGDNIAGEFRMIVDEYVRTKYRKKAANALEHHHHHH
MEASURED_METRIC: soluble on expression in E. coli
RESULT: not soluble
//
BIOSEQUENCE: LKDFRYGIRLTGTTIKNEVISLGGKRIASGDIGAGKSVQMTEEGKPIKYFYGYNVIGIFQNEAQIKDYNERAAAATGNAGQQYQNNVGPGDLIYEDVDGDGYITANDRKDLGSPTPKFIGGLGISAFWKGFDLSIDFQGNFGNKIFNAKQVERFSGSDNWDRSFLDRWTPENPNTMTPRMTLEGNNYQVSSRYVESGSYVKLQTVELGYTFPKSWMQKVSVQNLRVYFSGNNLAYFTGYNGFTPEVLGGIDRQIYPVTATCRFGLNVTF
MEASURED_METRIC: soluble on expression in E. coli
RESULT: not soluble
